Sourced from patent US8377458B2

system: inside of upper parts of arms; assay: Test of a cooling towel (direct spraying), sensory evaluation; type: in vivo, human (panelists); details: Group B; direct spraying; after 10 min air drying; smaller = better
Measured attribute: total score of the ranking numbers (cooling effect on treated hand towel)
Note: the reply should be a number with no unit written.

INPUT: Field request: total score of the ranking numbers (cooling effect on treated hand towel) | item: C=C(C)C1CCC(C)CC1OC(=O)CCC(=O)OC1CC(C)CCC1C(C)C (stereo not shown)
OUTPUT: 16

INPUT: Consider next the compound CC1CCC(C(C)C)C(OC(=O)CCCC(=O)OCCc2ccccc2)C1 (stereo not shown) in the same way.
OUTPUT: 17

INPUT: Consider next the compound CC1CCC(C(C)C)C(OC(=O)CCCC(=O)OC2CC(C)CCC2C(C)C)C1 (stereo not shown) [Dimenthylglutaric acid, reference compound] in the same way.
OUTPUT: 22

INPUT: Consider next the compound CC(C)[C@@H]1CC[C@@H](C)C[C@H]1O [Compound 1-Menthol, l-menthol, reference compound] in the same way.
OUTPUT: 7

---

system: inside of upper parts of arms; experiment: Test of a cooling towel (direct spraying), sensory evaluation; format: in vivo, human (panelists); conditions: Group B; direct spraying; after 24 hr air drying; smaller = better
Measured attribute: total score of the ranking numbers (cooling effect on treated hand towel)

INPUT: Field request: total score of the ranking numbers (cooling effect on treated hand towel) | item: CC1CCC(C(C)C)C(OC(=O)CCCC(=O)OCCc2ccccc2)C1 (stereo not shown)
OUTPUT: 14

INPUT: Consider next the compound C=C(C)C1CCC(C)CC1OC(=O)CCC(=O)OC1CC(C)CCC1C(C)C (stereo not shown) in the same way.
OUTPUT: 10

INPUT: Consider next the compound CC(C)[C@@H]1CC[C@@H](C)C[C@H]1O [Compound 1-Menthol, l-menthol, reference compound] in the same way.
OUTPUT: 25

INPUT: Consider next the compound CC1CCC(C(C)C)C(OC(=O)CCCC(=O)OC2CC(C)CCC2C(C)C)C1 (stereo not shown) [Dimenthylglutaric acid, reference compound] in the same way.
OUTPUT: 19
